Assay System: TDP-43 1-260 (Homo sapiens)
Sequence (Q13148 1-260): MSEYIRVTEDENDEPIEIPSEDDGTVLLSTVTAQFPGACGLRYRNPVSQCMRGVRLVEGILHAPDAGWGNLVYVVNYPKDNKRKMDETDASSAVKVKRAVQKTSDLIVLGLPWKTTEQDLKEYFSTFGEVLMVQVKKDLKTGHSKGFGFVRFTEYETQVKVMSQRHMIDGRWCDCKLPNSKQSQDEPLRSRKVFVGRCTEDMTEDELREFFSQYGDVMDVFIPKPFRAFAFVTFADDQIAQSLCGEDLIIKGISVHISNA
Test Protocol: TDP-43 alpha-screen assay with bt-TAR32
Format: binding
Run Parameters: bt-TAR32 0.125 nM; 3 h at room temperature; read-out: Activity (μM) in the TDP-43-DNA alpha-screen assay
Grouping rule (IC50): lower range: < 0.1 µM; middle range: ≥ 0.1 µM and < 0.6 µM; upper range: ≥ 0.6 µM

Worked set:
COc1ccc(-c2cc(NC3CCN(C4CCN(C)CC4)CC3)cc(-c3ccc(N4CCNCC4)cc3)n2)cc1 [Example 36]
middle range
COc1ccc(-c2cc(NC3CCN(C4CCN(C)CC4)CC3)cc(-c3ccc(N4CCNCC4)cc3)n2)cc1 [Example 27]
middle range
COc1ccc(-c2cc(NCCCN(C)CCCN)cc(-c3ccc(N4CCN(CC5CC5)CC4)cc3)n2)cc1 [Example 10]
lower range

Problem: Band of CN(CCCN)CCCNc1cc(C#CC2CCNCC2)nc(-c2ccc(N3CCNCC3)cc2)c1 [Example 11] ?
Solution: lower range

Problem: Which class does CN(CCCN)CCCNc1cc(-c2ccc(C3CCNCC3)cc2)nc(-c2ccc(N3CCNCC3)cc2)c1 [Example 8] fall in?
Solution: lower range

Problem: Class label required: CN(C)CCCNc1cc(-c2ccc(N3CCNCC3)cc2)nc(-c2ccc(N3CCCC3)nc2)c1 [Example 44]
Solution: upper range

Problem: Kindly state the category for this compound: CN(CCCN)CCCNc1cc(-c2ccc(N3CCNCC3)cc2)nc(-c2ccc(N3CCNCC3)nc2)c1 [Example 4]
Solution: lower range

Problem: Which IC50 category applies to COc1ccc(-c2cc(NC3CC4CCC(C3)N4C)cc(-c3ccc(N4CCN(C)CC4)cc3)n2)cc1 (stereo not shown) [Example 58] here?
Solution: upper range

Problem: Into which bin does this compound go? COc1ccc(-c2cc(NCCCN(C)CCCN)cc(CCC3CC3)n2)cc1 [Example 71]
Solution: middle range

Problem: Input NCCCNc1n[nH]c2cc(-c3ccc(N4CCNCC4)cc3)ccc12 [Example 87] ; output its category
Solution: middle range
